Taken from patent USRE48335E1.

Positions of bridges follow the written chain, without caps; N, C: chain ends. Non-standard residues stand in square brackets, D forms with d. Residues, ends and D or L forms follow the SMILES beside them. *: point of attachment. Benzoyl(3-CF3) = O=C(c1cccc(C(F)(F)F)c1)*; X10 = O=C(c1cc(F)cc(Cl)c1)*; dNle = CCCC[C@@H](N)C(=O)O; X14 = Cc1ccc(C(=O)*)cc1C; Dab = NCC[C@H](N)C(=O)O; Abu = CC[C@H](N)C(=O)O; Dap = NC[C@H](N)C(=O)O
Hi! I'm sharing some Minimum inhibitory concentration, Ec FADDI-EC003 results obtained with Enterobacter cloacae.
# value in µg/mL; strip the unit string

Examples with their reported Minimum inhibitory concentration, Ec FADDI-EC003 follow.
CC[C@@H]1NC(=O)[C@@H](CC(C)C)NC(=O)[C@H](CCN)NC(=O)[C@@H](NC(=O)[C@H](CN)NC(=O)[C@@H](NC(=O)[C@H](CCN)NC(=O)c2ccc(C)c(C)c2)[C@@H](C)O)CCNC(=O)[C@H]([C@@H](C)O)NC(=O)[C@H](CCN)NC(=O)[C@H](CCN)NC1=O [Compound 83] (X14-[Dab]T[Dap][Dab][Dab][dL][Abu][Dab][Dab]T; lactam 4-C): 0.25
CCCC[C@H]1NC(=O)[C@H](CCN)NC(=O)[C@@H](NC(=O)[C@H](CN)NC(=O)[C@@H](NC(=O)[C@H](CCN)NC(=O)c2cccc(C(F)(F)F)c2)[C@@H](C)O)CCNC(=O)[C@H]([C@@H](C)O)NC(=O)[C@H](CCN)NC(=O)[C@H](CCN)NC(=O)[C@H](C)NC1=O [Compound 125] ({Benzoyl(3-CF3)}-[Dab]T[Dap][Dab][Dab][dNle]A[Dab][Dab]T; lactam 4-C): 0.5
CC[C@@H]1NC(=O)[C@@H](CC(C)C)NC(=O)[C@H](CCN)NC(=O)[C@@H](NC(=O)[C@H](CN)NC(=O)[C@@H](NC(=O)[C@H](CCN)NC(=O)c2cc(F)cc(Cl)c2)[C@@H](C)O)CCNC(=O)[C@H]([C@@H](C)O)NC(=O)[C@H](CCN)NC(=O)[C@H](CCN)NC1=O [Compound 116] (X10-[Dab]T[Dap][Dab][Dab][dL][Abu][Dab][Dab]T; lactam 4-C): 0.25

Then this compound:
Note to self: Minimum inhibitory concentration, Ec FADDI-EC003 recorded for C[C@@H]1NC(=O)[C@@H](Cc2ccccc2)NC(=O)[C@H](CCN)NC(=O)[C@@H](NC(=O)[C@H](CN)NC(=O)[C@@H](NC(=O)[C@H](CCN)NC(=O)c2cccc(C(F)(F)F)c2)[C@@H](C)O)CCNC(=O)[C@H]([C@@H](C)O)NC(=O)[C@H](CCN)NC(=O)[C@H](CCN)NC1=O [Compound 126] ({Benzoyl(3-CF3)}-[Dab]T[Dap][Dab][Dab][dF]A[Dab][Dab]T; lactam 4-C) was 0.5
